Overview of recorded IC50 for various compounds
Target: BCAT2 (Homo sapiens)
Sequence (O15382 28-392): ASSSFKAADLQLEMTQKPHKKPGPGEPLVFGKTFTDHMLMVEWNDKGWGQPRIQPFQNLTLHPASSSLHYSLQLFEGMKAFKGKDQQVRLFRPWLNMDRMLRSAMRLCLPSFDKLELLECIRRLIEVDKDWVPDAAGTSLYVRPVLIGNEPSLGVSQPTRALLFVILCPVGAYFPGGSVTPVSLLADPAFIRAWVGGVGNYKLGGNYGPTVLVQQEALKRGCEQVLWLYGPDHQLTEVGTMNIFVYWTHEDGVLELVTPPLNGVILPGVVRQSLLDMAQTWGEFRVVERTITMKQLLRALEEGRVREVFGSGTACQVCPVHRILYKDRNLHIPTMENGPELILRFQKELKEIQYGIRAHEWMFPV
Assay: BCAT2 in vitro enzyme inhibition assay (hBCAT2, glutamate dehydrogenase/diaphorase/resazurin coupled fluorescence read)
Type: biochemical
Conditions: hBCAT2, 1 h preincubation at 25° C., one hour reaction; average where tested multiple times
READOUT LABEL: IC50

[[record]]
record_smiles = "O=C(N[C@H]1CCC[C@@H](n2c(-c3ccccc3F)nc3cnc(-c4nc[nH]n4)cc32)C1)c1ccccc1F"
readout_label = "IC50"
endpoint_result = "< 100 nM"

[[record]]
record_smiles = "O=C(N[C@H]1CCC[C@@H](n2c(-c3ncccc3F)nc3cnc(-c4nc[nH]n4)cc32)C1)c1cc(F)ccc1F"
readout_label = "IC50"
endpoint_result = "< 100 nM"

[[record]]
record_smiles = "O=C1c2cc(F)ccc2CN1[C@H]1CCC[C@@H](n2c(-c3c(F)cccc3OC(F)F)nc3cnc(-c4nc[nH]n4)cc32)[C@@H]1O"
readout_label = "IC50"
endpoint_result = "< 100 nM"


----------
Overview of recorded IC50 for various molecules
target: BCAT2 (Homo sapiens, UniProt O15382); test: BCAT2 cell inhibition using engineered A549 cells (MUT KO, BCAT1 KO; 13C6-KMV formation by LC-MS/MS); type: cell-based; design: expressed endogenous BCAT2; endogenous in cells; host or cells: A549 cells, MUT knockout and BCAT1 knockout
READOUT LABEL: IC50

[[record]]
molecule = "O=C1c2cc(F)ccc2CN1[C@H]1CCC[C@@H](n2c(-c3ccccc3OC(F)F)nc3cnc(-c4nc[nH]n4)cc32)[C@@H]1O [compound 188]"
assayed_target = "BCAT2 (Homo sapiens, UniProt O15382)"
endpoint_result = "0.1 to 0.5 µM"

[[record]]
molecule = "O=C(N[C@H]1CCC[C@@H](n2c(-c3ccccc3F)nc3cnc(-c4nc[nH]n4)cc32)C1)c1ncccc1F [Example 11]"
assayed_target = "BCAT2 (Homo sapiens, UniProt O15382)"
endpoint_result = "0.5 to 1 µM"

[[record]]
molecule = "O=C(N[C@H]1CCC[C@@H](n2c(-c3ccccc3F)nc3cnc(-c4nc[nH]n4)cc32)C1)c1ccccc1F [Example 76]"
assayed_target = "BCAT2 (Homo sapiens, UniProt O15382)"
endpoint_result = "< 0.1 µM"

[[record]]
molecule = "O=C(N[C@H]1CCC[C@@H](n2c(-c3ccccc3F)nc3cnc(-c4nc[nH]n4)cc32)C1)c1ccccc1Cl [Example 3]"
assayed_target = "BCAT2 (Homo sapiens, UniProt O15382)"
endpoint_result = "0.1 to 0.5 µM"

[[record]]
molecule = "O=C1c2cc(Cl)ccc2CN1[C@H]1CCC[C@@H](n2c(-c3ccccc3F)nc3cnc(-c4nc[nH]n4)cc32)C1 [Example 168]"
assayed_target = "BCAT2 (Homo sapiens, UniProt O15382)"
endpoint_result = "< 0.1 µM"

[[record]]
molecule = "O=C(N[C@H]1CCC[C@@H](n2c(-c3ccccc3F)nc3cnc(-c4nc[nH]n4)cc32)C1)c1cc(Cl)ccc1CO [Example 40]"
assayed_target = "BCAT2 (Homo sapiens, UniProt O15382)"
endpoint_result = "0.1 to 0.5 µM"

[[record]]
molecule = "CN1C[C@H](NC(=O)c2cc(Cl)ccn2)C[C@H](n2c(-c3ccccc3F)nc3cnc(-c4nc[nH]n4)cc32)C1 [Example 130]"
assayed_target = "BCAT2 (Homo sapiens, UniProt O15382)"
endpoint_result = "< 0.1 µM"


----------
biological target: BCAT2 (Homo sapiens, UniProt O15382); experiment: BCAT2 in vitro enzyme inhibition assay (hBCAT2, glutamate dehydrogenase/diaphorase/resazurin coupled fluorescence read); assay type: biochemical; conditions: hBCAT2, 1 h preincubation at 25° C., one hour reaction; average where tested multiple times
pIC50: −log10 of the molar value.
READOUT LABEL: pIC50

[[record]]
molecule = "CC(C)Cc1nc2cnc(-c3nc[nH]n3)cc2n1[C@@H]1CCC[C@H](NC(=O)c2cc(F)ccc2F)[C@H]1O [Example 121]"
assayed_target = "BCAT2 (Homo sapiens, UniProt O15382)"
endpoint_result = "6.30 to 7.00"

[[record]]
molecule = "O=C(N[C@H]1CCC[C@@H](n2c(-c3ccccc3F)nc3cnc(-n4nccn4)cc32)C1)c1cc(Cl)ccc1OCCO [Example 68]"
assayed_target = "BCAT2 (Homo sapiens, UniProt O15382)"
endpoint_result = "> 7.00"

[[record]]
molecule = "CN1C[C@H](N2Cc3ccc(F)cc3C2=O)C[C@H](n2c(-c3ccccc3OCCO)nc3cnc(-c4nc[nH]n4)cc32)C1 [Example 197]"
assayed_target = "BCAT2 (Homo sapiens, UniProt O15382)"
endpoint_result = "> 7.00"

[[record]]
molecule = "COc1ccc(C(F)(F)F)cc1C(=O)N[C@H]1CCC[C@@H](n2c(-c3ccccc3F)nc3cnc(-c4nc[nH]n4)cc32)C1 [Example 9]"
assayed_target = "BCAT2 (Homo sapiens, UniProt O15382)"
endpoint_result = "> 7.00"


----------
Overview of recorded IC50 for various compounds
Molecular target: BCAT2 (Homo sapiens)
Assay: BCAT2 cell inhibition using engineered A549 cells (MUT KO, BCAT1 KO; 13C6-KMV formation by LC-MS/MS)
Format: cell-based
Parameters: expressed endogenous BCAT2; endogenous in cells; host or cells: A549 cells, MUT knockout and BCAT1 knockout
Procedure: Endogenous Methylmalonyl-CoA Mutase (MUT) and Branched Chain Aminotransferase 1 (BCAT1) in A549 cells was knocked out by CRISPR/CAS9 using the targeting system from TransOMIC Technologies. […] For KMV cell assays, on day 1, 25,000 cells/100 μL EMEM (10% FBS) were seeded in each well of a 96-well plate. […] In the remaining assay wells 50 μL of Promega Glo CTG reagent was added and luminescence was measured as a cell viability readout. […]
READOUT LABEL: IC50

[[record]]
compound = "CO[C@@H]1C[C@H](N2Cc3ccc(F)cc3C2=O)C[C@H](n2c(-c3ccccc3F)nc3cnc(-c4nc[nH]n4)cc32)C1"
endpoint_result = "< 100 nM"

[[record]]
compound = "CCOc1ccc(Cl)cc1C(=O)N[C@H]1CCC[C@@H](n2c(-c3ncccc3F)nc3cnc(-c4nc[nH]n4)cc32)C1"
endpoint_result = "< 100 nM"

[[record]]
compound = "O=C1c2cc(Cl)ccc2OCN1[C@H]1CCC[C@@H](n2c(-c3ccccc3F)nc3cnc(-c4ncco4)cc32)[C@@H]1O"
endpoint_result = "< 100 nM"

[[record]]
compound = "N#Cc1ccccc1-c1nc2cnc(-c3nc[nH]n3)cc2n1[C@@H]1CCC[C@H](N2Cc3ccc(F)cc3C2=O)C1"
endpoint_result = "< 100 nM"

[[record]]
compound = "O=C(N[C@H]1CCC[C@@H](n2c(-c3ccccc3F)nc3cnc(-c4nc[nH]n4)cc32)C1)c1ncccc1Cl"
endpoint_result = "500 to 1000 nM"

[[record]]
compound = "O=C(N[C@H]1CCC[C@@H](n2c(-c3ccccc3F)nc3cnc(-n4nccn4)cc32)C1)c1cc(Cl)ccc1OCCO"
endpoint_result = "< 100 nM"

[[record]]
compound = "CC(=O)N1CC(N2Cc3ccc(F)cc3C2=O)CC(n2c(-c3c(F)cccc3F)nc3cnc(-c4nc[nH]n4)cc32)C1 (stereo not shown)"
endpoint_result = "< 100 nM"


----------
Biological target: BCAT2 (Homo sapiens, UniProt O15382)
Assay: BCAT2 cell inhibition using engineered A549 cells (MUT KO, BCAT1 KO; 13C6-KMV formation by LC-MS/MS)
Assay type: cell-based
Set-up: expressed endogenous BCAT2; endogenous in cells; host or cells: A549 cells, MUT knockout and BCAT1 knockout
Description: Endogenous Methylmalonyl-CoA Mutase (MUT) and Branched Chain Aminotransferase 1 (BCAT1) in A549 cells was knocked out by CRISPR/CAS9 using the targeting system from TransOMIC Technologies. […] For KMV cell assays, on day 1, 25,000 cells/100 μL EMEM (10% FBS) were seeded in each well of a 96-well plate. […] In the remaining assay wells 50 μL of Promega Glo CTG reagent was added and luminescence was measured as a cell viability readout. […]
pIC50: −log10 of the molar value.
READOUT LABEL: pIC50

[[record]]
compound = "O=C1c2ccc(F)cc2CN1[C@H]1CCC[C@@H](n2c(-c3ccccc3F)nc3cnc(-c4nc[nH]n4)cc32)C1 [Example 176]"
readout_label = "pIC50"
endpoint_result = "6.30 to 7.00"

[[record]]
compound = "O=C(N[C@H]1CCC[C@@H](n2c(-c3ccccc3F)nc3cnc(-c4nc[nH]n4)cc32)C1)c1cc(Cl)ccc1OC(CO)CO [Example 90]"
readout_label = "pIC50"
endpoint_result = "6.30 to 7.00"

[[record]]
compound = "O=C(N[C@H]1CCC[C@@H](n2c(-c3ccccc3F)nc3ccc(-c4nc[nH]n4)cc32)[C@@H]1O)c1cc(Cl)ccn1 [Example 218]"
readout_label = "pIC50"
endpoint_result = "6.30 to 7.00"

